System: CCRF-CEM leukemia
test.summary: NCI-60 one-dose screen, 48 h
condition.label: 10 µM unless noted
Protocol: Growth inhibition of the CCRF-CEM human tumor cell line is measured as a screen for anti-cancer activity. Cells are grown in 96 well plates and exposed to the test compound for 48 hours. Compounds are tested at a single concentration, which is 10^-5 M for most compounds. The reported endpoint is percent growth (GI% or GIPRCNT), where numbers from 0 - 100% represent growth inhibition, and numbers from -100% - 0 represent cell death. For example, a value of 40 represents 60% growth inhibition. […]
Compounds without any hit were thinned out: in the full panel of roughly 83,000, 20% have a hit. Active and inactive are the calls of the source. The calls were made as follows: active = growth percent below 10; inactive = the rest.
Classes to choose from: 1 (active), 0 (inactive)

Record excerpt, results attached:
# compound, class.label
measured = [
    ("Cc1ccc(Nc2nc(SC(C)C)nc(-c3ccccc3)c2C#N)cc1", 0),
    ("CC1=C(C)C(=O)C(Nc2ccc3c(c2)OCO3)=C(Br)C1=O", 0),
    ("Cc1ccc(NC(=O)Nc2nc3ccc([N+](=O)[O-])cc3s2)cc1", 0),
]

// query Check the results log: what was the call for CC(Nc1ncnc2ccc(-c3cnc(N)nc3)cc12)c1ccccc1 (centres undefined) ?
// result 0

// query Check the results log: what was the call for CCOC(=O)c1c(NC(=O)c2ccc(C(F)(F)F)cc2)sc2c(CN3CCN(C)CC3)c(O)ccc12 ?
// result 1

----------
Tested on: MCF7 breast
test.summary: NCI-60 one-dose screen, 48 h (100 = growth as untreated, 0 = no growth, -100 = all killed)
condition.label: 10 µM unless noted
About 83,000 compounds went through this panel and 20% of them were active in at least one assay; those are over-represented in the sample as a whole.
Label scheme for growth: lower than 30% is False, 30% and above is True.

# compound, test.target, class.label
records = [
    ("Cc1ccc2c(n1)C(=O)C(Cl)=C(Nc1cccc(C(=O)OC(C)(C)C)c1)C2=O", "MCF7 breast", "True"),
    ("O=C1Nc2ccc(F)cc2/C1=C\\C(=O)c1ccc(NS(=O)(=O)c2ccccc2)cc1", "MCF7 breast", "False"),
    ("CC(Nc1ncnc2ccc(-c3cnc(N)nc3)cc12)c1ccccc1 (stereo unspecified)", "MCF7 breast", "False"),
    ("CNC(=O)c1cc(-n2ccc3cc(NC(=O)Nc4ccc(N5CCN(C)CC5)c(C(F)(F)F)c4)ccc32)ccn1", "MCF7 breast", "False"),
]

// query Reported growth at or above 30%? CC(=O)N1N=C(c2cc3ccccc3oc2=O)CC1c1cn(-c2ccccc2)nc1-c1ccc(C)cc1 (stereo unspecified)
// result True

// query Reported growth at or above 30%? CCCC[n+]1ccc(SCC(=O)n2ccc3ccccc32)c2ccccc21
// result True

// query Reported growth at or above 30%? C#C[C@]1(O)CC[C@H]2[C@@H]3CC=C4c5sc(Nc6cc(Cl)ccc6OC)nc5CC[C@]4(C)[C@H]3CC[C@@]21C
// result False

// query Reported growth at or above 30%? CCCCCCCCCCCC(=O)NC(C)(C)C(=O)N1CCCC1C(=O)NC(C)(C)C(=O)NC(C)(C)C(=O)N1CCCC1C(=O)NC(C)(C)C(=O)NC(C)(C)C(=O)N1CCCC1C(=O)NC(C)C(=O)NCCC(=O)NC(C)C(=O)NC(C)(C)C(=O)NC(C)(C)C(=O)NC(C)(C)C(=O)NCCC(=O)NC(C)(C)C(=O)NC(C)(C)C(=O)NC(C)(C)C(=O)NC(C)C(=O)NCCC(=O)O (stereo unspecified)
// result False

// query Reported growth at or above 30%? Cc1ccc2c(n1)C(=O)C(Cl)=C(Nc1ccc(C(F)(F)F)cc1)C2=O
// result False

// query Reported growth at or above 30%? CN(C)c1ccc(-c2cc(-c3c[nH]c4ccccc34)nc(N)c2C#N)cc1
// result False

// query Reported growth at or above 30%? Cc1[nH]c(C(=O)Nc2ccccc2OCc2cccc(C(=O)NC3CCNC3)c2)c(Cl)c1Cl (stereo unspecified)
// result False

// query Reported growth at or above 30%? O=C(CSc1nnc(-c2cccs2)n1-c1ccccc1)Nc1ccccc1
// result True

// query Reported growth at or above 30%? O=C1[C@H]2Cc3c([nH]c4ccccc34)[C@H](c3ccc(Br)cc3)N2C(=O)CN1C1CCN(CC2CCCCC2)CC1
// result False

// query Reported growth at or above 30%? CC(=C(c1ccc(OCCN(C)C)cc1)c1ccc(OCCN(C)C)cc1)c1ccc(Cl)cc1
// result False

// query Reported growth at or above 30%? CC1=C(C)C(=O)C(Nc2ccc(C)c(C)c2)=C(Br)C1=O
// result True

// query Reported growth at or above 30%? Cc1csc(/N=C(N)/N=C(\N)c2cccc(Br)c2)n1
// result True

// query Reported growth at or above 30%? Clc1cccc(/C=N/Nc2nc(N/N=C/c3cccc(Cl)c3)nc(N3CCOCC3)n2)c1
// result True

// query Reported growth at or above 30%? C[C@H]1OCC2(CCN(c3cnc(C(=O)Nc4cc(F)cc5cccnc45)cn3)CC2)[C@H]1N
// result False

// query Reported growth at or above 30%? O=C(CCCCCCN1CC(=O)N2[C@@H](c3ccccc3Br)c3[nH]c4ccccc4c3C[C@H]2C1=O)NO
// result False

// query Reported growth at or above 30%? CCC1=Cc2c(OC)cccc2OC12C=Cc1c(OC)cccc1O2 (stereo unspecified)
// result False

Where do these numbers come from? They come from PubChem BioAssay (NCI).
